# TARGET: Human RET kinase (Homo sapiens (Human), UniProt P07949, C634W)
# Sequence (P07949 29-1114 C634W): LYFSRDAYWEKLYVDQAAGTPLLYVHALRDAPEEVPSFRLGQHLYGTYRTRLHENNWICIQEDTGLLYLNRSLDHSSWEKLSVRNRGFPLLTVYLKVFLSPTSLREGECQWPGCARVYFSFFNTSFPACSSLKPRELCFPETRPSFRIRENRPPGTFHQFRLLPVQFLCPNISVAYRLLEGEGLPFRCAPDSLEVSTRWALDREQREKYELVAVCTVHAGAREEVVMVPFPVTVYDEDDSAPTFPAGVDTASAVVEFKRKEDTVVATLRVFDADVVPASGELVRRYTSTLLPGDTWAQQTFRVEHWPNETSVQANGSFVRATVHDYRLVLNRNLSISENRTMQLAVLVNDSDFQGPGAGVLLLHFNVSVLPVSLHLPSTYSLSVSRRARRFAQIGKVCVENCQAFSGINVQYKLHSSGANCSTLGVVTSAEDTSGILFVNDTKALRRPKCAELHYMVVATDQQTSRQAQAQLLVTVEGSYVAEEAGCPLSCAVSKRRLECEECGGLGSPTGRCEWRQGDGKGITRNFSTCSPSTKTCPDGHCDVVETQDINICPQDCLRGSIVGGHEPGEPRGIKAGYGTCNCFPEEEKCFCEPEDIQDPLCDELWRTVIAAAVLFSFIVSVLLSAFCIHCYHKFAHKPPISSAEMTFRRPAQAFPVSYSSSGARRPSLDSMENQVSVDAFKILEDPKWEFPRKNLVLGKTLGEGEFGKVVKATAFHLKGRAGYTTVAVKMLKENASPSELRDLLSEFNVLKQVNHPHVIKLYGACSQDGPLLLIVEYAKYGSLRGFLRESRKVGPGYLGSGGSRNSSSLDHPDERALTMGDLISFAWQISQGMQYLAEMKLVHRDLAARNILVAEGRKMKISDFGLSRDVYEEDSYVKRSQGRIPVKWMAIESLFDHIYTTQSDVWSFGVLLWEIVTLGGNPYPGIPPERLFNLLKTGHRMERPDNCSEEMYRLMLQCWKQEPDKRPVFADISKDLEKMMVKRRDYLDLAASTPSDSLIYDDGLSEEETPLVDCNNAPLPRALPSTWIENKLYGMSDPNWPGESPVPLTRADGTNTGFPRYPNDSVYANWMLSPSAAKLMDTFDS
# ASSAY NOTES: RET kinase cell-based mechanistic assay (constitutive RET kinase phosphorylation in TT cells)
# CONDITION SET: 2 h treatment, phospho-RET ELISA
# Experimental: RET Kinase Cell-Based Mechanistic Assay The potency of the compounds of the invention were tested for its ability to inhibit constitutive RET kinase phosphorylation in cell-based assay. […] Plates were washed 4× with 200 μL of 1×PBS; 0.05% Tween-20, 100 μL of TMB (3,3′,5,5″-tetramethylbenzidine) substrate (Cell Signaling #7004) was added, incubated for 10 minutes at 37° C., 100 μL of Stop solution (Cell Signaling #7002) was added and absorbance read on a spectrophotometer at 450 nm. […]
pIC50: −log10 of the molar value.
Please provide measured pIC50 for the entries that follow.

CCOc1cc(=O)[nH]cc1-c1ccc(CC(=O)Nc2cc(C(=O)NCCN(C)C)cc(C(F)(F)F)c2)c(F)c1 :: 7.00 to 8.00

Please find the next compound below.
Form field pIC50, entry `CCOc1cc(=O)[nH]cc1-c1ccc(CC(=O)Nc2cc(OCCN(C)C)cc(C(F)(F)F)c2)c(F)c1` : 7.00 to 8.00
